# target-system: mouse melanocortin 1 receptor (mouse, UniProt Q01727 1-315)
# Sequence (Q01727 whole entry): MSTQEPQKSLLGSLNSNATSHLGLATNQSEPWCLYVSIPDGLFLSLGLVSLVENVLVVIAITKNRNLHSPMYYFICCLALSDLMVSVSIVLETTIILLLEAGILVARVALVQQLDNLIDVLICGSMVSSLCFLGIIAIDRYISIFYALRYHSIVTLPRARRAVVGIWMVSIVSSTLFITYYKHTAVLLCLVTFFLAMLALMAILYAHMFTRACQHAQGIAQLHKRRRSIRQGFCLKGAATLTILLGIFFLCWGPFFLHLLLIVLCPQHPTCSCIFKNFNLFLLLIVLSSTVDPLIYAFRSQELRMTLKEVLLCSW
# protocol-summary: cell-based or functional assay
Square brackets hold non-standard residues; d marks the D form. Dap = NC[C@H](N)C(=O)O
measured-endpoint: agonist activity, cAMP AlphaScreen, HEK293 cells stably expressing the receptor

# binder, measurement
measured = [
    ("cyclo(PCFF[Dap]AF[dP]) [c[Pro-Cys-Phe-Phe-Dap-Ala-Phe-DPro]]", "4 µM"),
]

Now look at this entry.
Query :: Dear colleague, I am looking for the recorded agonist activity, cAMP AlphaScreen, HEK293 cells stably expressing the receptor of the following binder: cyclo(PRYFNAF[dP]) [c[Pro-Arg-Tyr-Phe-Asn-Ala-Phe-DPro]]
Result :: > 100 µM

Measured values drawn from paper PMC7250496 for this set.
